- Tested on: AS120
- protocol_description: qHTS profiling for inhibitors of Plasmodium falciparum proliferation (AID 504749); also: nearly all actives have a fitted effect of over 60% in size; also: potency is read from the fitted curve at half-maximal effect
- test_parameters: P. falciparum in erythrocytes, SYBR Green DNA, 72 h; series mostly up to 28.7 µM
Inconclusive results are not listed. The source made the active and inactive calls. Calls follow the shape of the dose curve; as a rule, active = well fitted inhibition curve with a large enough effect; inconclusive = small, poorly fitted or top-dose-only effect; inactive = flat fitted curve, though single readings scatter.
reported_property: Potency

In [3]: df
Out[3]:
                                   compound   endpoint_result
0     CC1NCCOC1c1ccccc1 (centres undefined)          inactive
1  CC[N+]1(C)CCCC(OC(=O)C(O)(c2ccccc2)c2ccccc2)C1 (centres undefined)          inactive
2                        CN(C)CCc1ccc(O)cc1          inactive
3                    Oc1ccc(Cl)cc1Cc1ccccc1  8.91 µM (active)
4                                  NN=C(N)N          inactive
5       CN1C(=S)CN=C(c2ccccc2)c2cc(Cl)ccc21          inactive
6  CCN(C(C)=O)c1cccc(-c2ccnc3c(C#N)cnn23)c1          inactive
7              Oc1cc(Cl)ccc1Oc1ccc(Cl)cc1Cl  3.98 µM (active)
8  CC(C)CC(N(C)C)C1(c2ccc(Cl)cc2)CCC1 (centres undefined)          inactive

====

- protocol_description: Quantitative High-Throughput drug screen in 47 multiple myeloma cell lines against the NCATS MIPE library collection: L363_DSMZ cell viability assay (AID 1918984); also: nearly all actives have a fitted effect of over 40% in size
- test_parameters: L363 myeloma viability, CellTiter-Glo ATP luminescence, 48 h; series mostly up to 45.8 µM
Inconclusive results are not listed. Active and inactive are the calls of the source. Calls follow the shape of the dose curve; as a rule, active = well fitted cell-killing curve with a large enough effect; inconclusive = small, poorly fitted or top-dose-only effect, or effect the other way; inactive = no such curve, though single readings can be large or run the other way.
Labels: active, inactive

>>> df
                                   compound  assigned_category
0         COC[C@@H](NC(C)=O)C(=O)NCc1ccccc1           inactive
1  COc1ccc(C(CN(C)C)C2(O)CCCCC2)cc1 (stereo not given)           inactive
2  C=C(C)[C@H]1Cc2c(ccc3c2O[C@@H]2COc4cc(OC)c(OC)cc4[C@@H]2C3=O)O1             active
3  COc1ccc2c(c1OC)CN1CCc3cc4c(cc3C1C2)OCO4 (stereo not given)             active
4     N[C@@H](Cc1ccc(N(CCCl)CCCl)cc1)C(=O)O             active

====

- protocol_description: Primary qHTS for Vero E6 cytotoxicity: counterscreen for inhibitors of SARS-S pseudo-typed particle cell entry (AID 1479150)
- test_parameters: cell viability; series mostly up to 57.1 µM
Results filed as inconclusive are left out. The source made the active and inactive calls. The call rests on the fitted dose curve.
reported_property: outcome

>>> df
                                    compound  reported_property  endpoint_result
 0                      O=NN(CCCl)C(=O)NCCCl            outcome         inactive
 1  CCC(C)n1ncn(-c2ccc(N3CCN(c4ccc(OC[C@H]5CO[C@](Cn6cncn6)(c6ccc(Cl)cc6Cl)O5)cc4)CC3)cc2)c1=O (stereo partly drawn)            outcome         inactive
 2     N[C@@H](Cc1ccc(N(CCCl)CCCl)cc1)C(=O)O            outcome         inactive
 3  O=C(OC1C[C@H]2CC[C@@H](C1)[N+]21CCCC1)C(O)(c1ccccc1)c1ccccc1 (stereo partly drawn)            outcome         inactive
 4  O=C1CCC(N2C(=O)c3ccccc3C2=O)C(=O)N1 (stereo not drawn)            outcome         inactive
 5           COc1cc(Cc2cnc(N)nc2N)cc(OC)c1OC            outcome         inactive
 6        CN1CCC(=C2c3ccccc3C=Cc3ccccc32)CC1            outcome         inactive
 7  C[C@@H](O)[C@H]1C(=O)N2C(C(=O)O)=C(S[C@@H]3CN[C@H](C(=O)N(C)C)C3)[C@H](C)[C@H]12            outcome         inactive
 8  CNS(=O)(=O)CCc1ccc2[nH]cc(C3CCN(C)CC3)c2c1            outcome         inactive
 9  CC(C)NCC(O)c1ccc(O)c(O)c1 (stereo not drawn)            outcome         inactive
10         NC(=O)N/N=C/c1ccc([N+](=O)[O-])o1            outcome         inactive
11           C[C@](N)(Cc1ccc(O)c(O)c1)C(=O)O            outcome         inactive
12                CCC1(c2ccccc2)C(=O)NCNC1=O            outcome         inactive
13  COc1cc2nc(N(C)CCCNC(=O)C3CCCO3)nc(N)c2cc1OC (stereo not drawn)            outcome         inactive
14                     NC12CC3CC(CC(C3)C1)C2            outcome         inactive
15  CCn1cc(C(=O)O)c(=O)c2cc(F)c(N3CCNCC3)cc21            outcome         inactive
16  CN1C(=O)CC(C)(c2ccccc2)C1=O (stereo not drawn)            outcome         inactive
17  CC(C)(C)NC(=O)[C@@H]1CN(Cc2cccnc2)CCN1C[C@@H](O)C[C@@H](Cc1ccccc1)C(=O)N[C@H]1c2ccccc2C[C@H]1O            outcome         inactive
18          Nc1nc(N)c2nc(-c3ccccc3)c(N)nc2n1            outcome         inactive
19  O=C1Nc2ccc(Cl)cc2[C@@](C#CC2CC2)(C(F)(F)F)O1            outcome         inactive
20  Cc1ccccc1C(=O)Nc1ccc(C(=O)N2CCCC(O)c3cc(Cl)ccc32)c(C)c1 (stereo not drawn)            outcome         inactive
21  CN(C)c1cc(NC(=O)CNC(C)(C)C)c(O)c2c1C[C@@H]1C[C@H]3[C@H](N(C)C)C(=O)C(C(N)=O)=C(O)[C@@]3(O)C(=O)C1=C2O            outcome         inactive
22  OCCN(CCO)c1nc(N2CCCCC2)c2nc(N(CCO)CCO)nc(N3CCCCC3)c2n1            outcome         inactive
23  C=CCN1CC[C@]23c4c5ccc(O)c4O[C@H]2C(=O)CC[C@@]3(O)[C@H]1C5            outcome         inactive
24  COc1cc2c(cc1OC)C(=O)C(CC1CCN(Cc3ccccc3)CC1)C2 (stereo not drawn)            outcome         inactive
25  Nc1nc(F)nc2c1ncn2[C@@H]1O[C@H](CO)[C@@H](O)[C@@H]1O            outcome         inactive
26  Cc1cnc(C(=O)NCCc2ccc(S(=O)(=O)NC(=O)NC3CCCCC3)cc2)cn1            outcome         inactive
27                                 Nc1ccncc1            outcome         inactive
28  CCC1C(=O)OCC1Cc1cncn1C (stereo not drawn)            outcome         inactive
29              O=C(NCCN1CCOCC1)c1ccc(Cl)cc1            outcome         inactive
30                           O=C(O)P(=O)(O)O            outcome         inactive
31                  N=c1nc(N2CCCCC2)cc(N)n1O            outcome         inactive
32  O=P1(NCCCl)OCCCN1CCCl (stereo not drawn)            outcome         inactive

====

- protocol_description: Immunotoxin (HA22) sensitization/mitigation study. Vehicle arm (PBS) (AID 1159510); also: potency is read from the fitted curve at half-maximal effect
- test_parameters: cancer cells viability with PBS vehicle (HA22 study); series mostly up to 46.1 µM
Activity calls are given as the source filed them. How the calls were made is not given here.
reported_property: Potency

>>> df
                                    compound  reported_property     endpoint_result
 0  Cc1cc2c(C(C)C)c(O)c(O)c(C=O)c2c(O)c1-c1c(C)cc2c(C(C)C)c(O)c(O)c(C=O)c2c1O            Potency    8.33 µM (active)
 1                         CN(C)C(=N)N=C(N)N            Potency            inactive
 2  COc1cccc2c1C(=O)c1c(O)c3c(c(O)c1C2=O)C[C@@](O)(C(=O)CO)C[C@@H]3O[C@H]1C[C@H](N)[C@H](O)[C@H](C)O1            Potency  0.0118 µM (active)
 3  COc1cc(Nc2c(C#N)cnc3cc(OCCCN4CCN(C)CC4)c(OC)cc23)c(Cl)cc1Cl            Potency    13.2 µM (active)
 4  CC(C)C[C@H](NC(=O)[C@H](CCc1ccccc1)NC(=O)CN1CCOCC1)C(=O)N[C@@H](Cc1ccccc1)C(=O)N[C@@H](CC(C)C)C(=O)[C@@]1(C)CO1            Potency  0.0015 µM (active)
 5        CN1CC(=O)N/C1=N/C(=O)Nc1cccc(Cl)c1            Potency            inactive
 6  CC1=C(/C=C/C(C)=C/C=C/C(C)=C/C(=O)Nc2ccc(O)cc2)C(C)(C)CCC1            Potency    1.87 µM (active)
 7  CC(C)C[C@H](NC(=O)[C@H](Cc1ccccc1)NC(=O)c1cnccn1)B(O)O            Potency  0.0037 µM (active)
 8       Cn1ccc2cc3c(cc21)CCN3C(=O)Nc1cccnc1            Potency            inactive
 9               O=C(CCCCCCC(=O)Nc1ccccc1)NO            Potency  0.0959 µM (active)
10  COC[C@H]1OC(=O)c2coc3c2[C@@]1(C)C1=C(C3=O)C2CCC(=O)[C@@]2(C)C[C@H]1OC(C)=O (some centres undefined)            Potency     5.9 µM (active)
11  CS(=O)c1ccc(-c2nc(-c3ccc(F)cc3)c(-c3ccncc3)[nH]2)cc1 (centres undefined)            Potency            inactive
12    Cn1c(CCCC(=O)O)nc2cc(N(CCCl)CCCl)ccc21            Potency            inactive
13  CCCc1nc2c(C)cc(-c3nc4ccccc4n3C)cc2n1Cc1ccc(-c2ccccc2C(=O)O)cc1            Potency    26.4 µM (active)
14  Cc1ccc(-c2cc(C(F)(F)F)nn2-c2ccc(S(N)(=O)=O)cc2)cc1            Potency    48.1 µM (active)
15  Cn1cc(C2=C(c3cn(C4CCN(Cc5ccccn5)CC4)c4ccccc34)C(=O)NC2=O)c2ccccc21            Potency    4.18 µM (active)
16  O=C(O)C(=O)c1cn(Cc2ccccc2)c2ccc(-c3ccc(OC(F)(F)F)cc3)cc12            Potency    23.5 µM (active)
17          Cc1oncc1C(=O)Nc1ccc(C(F)(F)F)cc1            Potency    20.9 µM (active)
18  COc1cc([C@@H]2c3cc4c(cc3[C@H](O)[C@H]3COC(=O)[C@H]23)OCO4)cc(OC)c1OC            Potency  0.0037 µM (active)
